// values below are reported Kd
- Tested on: T1, recombinant soluble human IL-6 receptor (SR344) (human, UniProt P08887 20-344, biotinylated (sites not given) where immobilized via streptavidin or used in phage ELISA)
- T1 construct: also called soluble IL-6 receptor; membrane-type IL-6 receptor (when biotinylated and immobilized on the chip)
- T1 sequence (looked up): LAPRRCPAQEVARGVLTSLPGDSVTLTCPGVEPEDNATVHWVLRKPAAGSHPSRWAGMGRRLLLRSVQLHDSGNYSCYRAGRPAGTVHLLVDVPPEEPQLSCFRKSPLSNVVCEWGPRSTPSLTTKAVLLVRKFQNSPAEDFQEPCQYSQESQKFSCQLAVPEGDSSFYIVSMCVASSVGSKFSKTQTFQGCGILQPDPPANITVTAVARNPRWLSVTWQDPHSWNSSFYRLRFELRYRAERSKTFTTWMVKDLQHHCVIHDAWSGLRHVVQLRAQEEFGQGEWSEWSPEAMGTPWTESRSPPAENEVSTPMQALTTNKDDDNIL
- Protocol notes: SPR Biacore T100, antibody on protein A/G chip, SR344 analyte, pH 7.4, 37 C
Field format: number, assumed nM, no unit text.

CLH5/L73 (antibody, IgG1, V domains shown, expressed and purified as IgG) VH: QVQLQESGPGLVKPSETLSLTCAVSGYSISHDHAWSWVRQPPGEGLEWIGHISYSGITNYNPHLKGRVTISRDTSKNQFSLKLSSVTAADTAAYYCARFLARITAHDHWGEGTLVTVSS VL: DIQMTQSPSSLSASVGDSVTITCQASQHISSHLNWYQQKPGKAPELLIYYGSHLHSGVPSRFSGSGSGTDFTFTISSLEAEDAATYYCGQGNRLPYTFGQGTKVEIE    1.1
H170/L82 (antibody, IgG1, V domains shown, expressed and purified as IgG (IgG1); also called H170/L82-IgG1) VH: QVQLQESGPGLVKPSETLSLTCAVSGHSISHHHAHSWVRQPPGEGLEWIGYISYSGITHYNPHLKGRVTISRDTSKNQFSLKLSSVTAADTAAYYCARVLARITAMDHWGEGTLVTVSS VL: DIQMTQSPSSLSASVGDSVTITCQASQDISSHLNWYQQKPGKAPELLIYYGSHLHSGVPSRFSGSGSGTDFTFTISSLEAEDAATYYCGQGNRLPYTFGQGTKVEIE    1.6
humanized PM1 antibody (wild type, WT) (antibody, human IgG1, kappa, V domains shown, IgG1; also called WT-IgG1; wild type humanized anti-IL-6 receptor antibody) VH: QVQLQESGPGLVRPSQTLSLTCTVSGYSITSDHAWSWVRQPPGRGLEWIGYISYSGITTYNPSLKSRVTMLRDTSKNQFSLRLSSVTAADTAVYYCARSLARTTAMDYWGQGSLVTVSS VL: DIQMTQSPSSLSASVGDRVTITCRASQDISSYLNWYQQKPGKAPKLLIYYTSRLHSGVPSRFSGSGSGTDFTFTISSLQPEDIATYYCQQGNTLPYTFGQGTKVEIKR    2.1

Now turn to the next binder.
Kd measured on H3pI/L73 (antibody, IgG1, V domains shown, tested as IgG1; also called H3pI/L73-IgG1; H3pl/L73) VH: QVQLQESGPGLVKPSETLSLTCAVSGHSISHDHAHSWVRQPPGEGLEWIGYISYSGITNYNPSLKGRVTISRDTSKNQFSLKLSSVTAADTAAYYCARSLARTTAMDYWGEGTLVTVSS VL: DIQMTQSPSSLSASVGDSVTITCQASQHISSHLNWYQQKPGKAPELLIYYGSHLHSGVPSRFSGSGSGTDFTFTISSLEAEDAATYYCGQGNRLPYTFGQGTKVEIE = 1.4
